Origin of values: patent US10239869B2

# experimental-target: Nav 1.5 (Homo sapiens (Human), UniProt Q14524)
# Sequence (Q14524 whole entry): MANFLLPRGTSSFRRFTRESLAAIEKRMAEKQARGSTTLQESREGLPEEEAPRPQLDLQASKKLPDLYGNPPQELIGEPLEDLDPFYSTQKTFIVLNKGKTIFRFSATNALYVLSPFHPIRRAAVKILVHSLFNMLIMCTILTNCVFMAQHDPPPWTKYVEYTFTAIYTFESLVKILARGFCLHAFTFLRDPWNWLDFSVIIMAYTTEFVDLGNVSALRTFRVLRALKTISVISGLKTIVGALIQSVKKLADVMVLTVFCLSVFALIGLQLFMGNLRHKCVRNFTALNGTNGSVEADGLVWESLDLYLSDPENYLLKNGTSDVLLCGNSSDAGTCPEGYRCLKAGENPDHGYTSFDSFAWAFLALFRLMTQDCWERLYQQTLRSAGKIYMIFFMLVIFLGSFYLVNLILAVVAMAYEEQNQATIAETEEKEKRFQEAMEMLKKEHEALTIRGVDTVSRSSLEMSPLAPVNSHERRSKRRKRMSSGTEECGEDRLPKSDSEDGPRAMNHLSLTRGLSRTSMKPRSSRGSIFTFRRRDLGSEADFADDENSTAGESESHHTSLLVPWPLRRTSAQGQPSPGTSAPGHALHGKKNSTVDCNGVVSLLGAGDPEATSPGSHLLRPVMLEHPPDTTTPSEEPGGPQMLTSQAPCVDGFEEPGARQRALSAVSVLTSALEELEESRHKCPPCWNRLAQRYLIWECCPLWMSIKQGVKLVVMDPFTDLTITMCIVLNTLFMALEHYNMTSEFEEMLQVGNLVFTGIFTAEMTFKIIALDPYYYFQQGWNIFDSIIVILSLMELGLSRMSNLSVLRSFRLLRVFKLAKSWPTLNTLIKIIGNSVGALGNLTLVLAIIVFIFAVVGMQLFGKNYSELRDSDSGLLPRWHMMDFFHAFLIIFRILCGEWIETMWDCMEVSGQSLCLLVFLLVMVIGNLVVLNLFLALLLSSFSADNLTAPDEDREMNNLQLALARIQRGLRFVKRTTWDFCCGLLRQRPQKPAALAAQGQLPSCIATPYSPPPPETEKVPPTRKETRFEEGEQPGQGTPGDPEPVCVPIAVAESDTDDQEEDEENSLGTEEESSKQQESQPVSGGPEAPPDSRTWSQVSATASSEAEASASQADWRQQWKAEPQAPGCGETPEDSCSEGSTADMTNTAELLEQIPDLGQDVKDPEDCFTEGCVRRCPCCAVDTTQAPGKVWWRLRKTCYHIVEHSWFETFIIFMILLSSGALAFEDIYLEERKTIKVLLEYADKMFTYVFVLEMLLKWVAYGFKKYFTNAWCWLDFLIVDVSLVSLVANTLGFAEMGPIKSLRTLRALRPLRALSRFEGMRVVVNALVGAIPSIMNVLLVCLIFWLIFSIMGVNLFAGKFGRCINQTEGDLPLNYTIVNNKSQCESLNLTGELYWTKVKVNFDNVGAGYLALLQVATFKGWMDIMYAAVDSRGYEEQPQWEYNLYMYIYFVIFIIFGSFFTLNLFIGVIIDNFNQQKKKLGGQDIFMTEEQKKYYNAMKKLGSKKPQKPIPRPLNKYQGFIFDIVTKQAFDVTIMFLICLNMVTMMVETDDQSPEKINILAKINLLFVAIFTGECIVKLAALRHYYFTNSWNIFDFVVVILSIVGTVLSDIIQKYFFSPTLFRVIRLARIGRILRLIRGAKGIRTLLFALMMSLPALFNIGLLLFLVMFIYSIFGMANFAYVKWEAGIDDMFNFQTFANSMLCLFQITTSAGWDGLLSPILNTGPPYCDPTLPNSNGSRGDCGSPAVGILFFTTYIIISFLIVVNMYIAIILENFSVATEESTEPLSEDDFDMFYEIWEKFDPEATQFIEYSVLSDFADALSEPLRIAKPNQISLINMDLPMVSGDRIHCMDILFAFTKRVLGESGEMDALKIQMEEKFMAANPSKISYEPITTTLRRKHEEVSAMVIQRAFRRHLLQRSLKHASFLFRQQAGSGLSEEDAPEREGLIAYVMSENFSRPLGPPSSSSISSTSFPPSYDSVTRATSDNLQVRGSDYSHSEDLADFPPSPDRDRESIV
# method: Inhibition of sodium channels, Red Membrane Potential Dye FLIPR assay, veratridine depolarization
# Assay type: cell-based
# condition: HEK-293 cells overexpressing the channel; read-out: Nav1.5 IC50
Reported values of IC50 for individual entries
Give just the number in nM; leave the unit off.

In [3]: df
Out[3]:
                                   compound  quantity_unit  observed_result
0  O=S(=O)(Nc1ncccn1)c1ccc2c(c1)OCC[C@@H]2c1ccc(C(F)(F)F)cc1C1CCOCC1             nM             1750
1  O=S(=O)(Nc1cccc(F)n1)c1ccc2c(c1)OCC[C@@H]2c1ccc(C(F)(F)F)cc1Cl (racemic)             nM             2180
2  O=S(=O)(Nc1ncccn1)c1ccc2c(c1)OCC[C@@H]2c1ccc(C(F)(F)F)cc1CCCF (racemic)             nM              505

The record that follows has no IC50 shown yet.
IC50 for `CC(C)Oc1ccc(-c2cc(C(F)(F)F)ccc2[C@H]2CCOc3cc(S(=O)(=O)Nc4ncccn4)ccc32)cn1` is 432
